# Measured Target: human α5β1-integrin (Homo sapiens, UniProt P05556+P08648, DEL729-798)
# Sequence (P08648 42-995 limits assumed, stated change not applied): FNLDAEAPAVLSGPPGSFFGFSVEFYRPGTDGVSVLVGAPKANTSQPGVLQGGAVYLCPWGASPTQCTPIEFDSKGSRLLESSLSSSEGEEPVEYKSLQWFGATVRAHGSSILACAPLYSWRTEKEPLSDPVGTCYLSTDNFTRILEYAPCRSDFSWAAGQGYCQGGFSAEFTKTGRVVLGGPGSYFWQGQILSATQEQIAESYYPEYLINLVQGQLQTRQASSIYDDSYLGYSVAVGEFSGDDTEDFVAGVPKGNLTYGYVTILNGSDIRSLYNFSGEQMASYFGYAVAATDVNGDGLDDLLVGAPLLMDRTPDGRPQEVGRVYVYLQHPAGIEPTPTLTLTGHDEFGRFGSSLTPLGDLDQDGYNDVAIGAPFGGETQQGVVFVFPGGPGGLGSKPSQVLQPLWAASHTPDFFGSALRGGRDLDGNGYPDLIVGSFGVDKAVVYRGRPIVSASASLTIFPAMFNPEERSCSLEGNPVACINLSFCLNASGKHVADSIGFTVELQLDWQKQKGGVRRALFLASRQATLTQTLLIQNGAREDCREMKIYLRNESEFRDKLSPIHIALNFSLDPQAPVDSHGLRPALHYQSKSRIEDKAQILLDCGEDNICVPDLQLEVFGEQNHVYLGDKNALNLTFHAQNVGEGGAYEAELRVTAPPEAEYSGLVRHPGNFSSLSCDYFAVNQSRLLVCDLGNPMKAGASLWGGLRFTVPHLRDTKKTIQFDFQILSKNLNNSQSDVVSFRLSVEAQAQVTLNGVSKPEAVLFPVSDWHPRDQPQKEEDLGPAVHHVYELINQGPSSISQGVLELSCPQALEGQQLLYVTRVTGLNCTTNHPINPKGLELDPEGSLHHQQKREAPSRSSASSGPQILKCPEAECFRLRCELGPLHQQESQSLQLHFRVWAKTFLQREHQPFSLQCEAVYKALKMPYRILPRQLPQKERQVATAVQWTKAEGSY
# Sequence (P05556 21-728 limits assumed, stated change not applied): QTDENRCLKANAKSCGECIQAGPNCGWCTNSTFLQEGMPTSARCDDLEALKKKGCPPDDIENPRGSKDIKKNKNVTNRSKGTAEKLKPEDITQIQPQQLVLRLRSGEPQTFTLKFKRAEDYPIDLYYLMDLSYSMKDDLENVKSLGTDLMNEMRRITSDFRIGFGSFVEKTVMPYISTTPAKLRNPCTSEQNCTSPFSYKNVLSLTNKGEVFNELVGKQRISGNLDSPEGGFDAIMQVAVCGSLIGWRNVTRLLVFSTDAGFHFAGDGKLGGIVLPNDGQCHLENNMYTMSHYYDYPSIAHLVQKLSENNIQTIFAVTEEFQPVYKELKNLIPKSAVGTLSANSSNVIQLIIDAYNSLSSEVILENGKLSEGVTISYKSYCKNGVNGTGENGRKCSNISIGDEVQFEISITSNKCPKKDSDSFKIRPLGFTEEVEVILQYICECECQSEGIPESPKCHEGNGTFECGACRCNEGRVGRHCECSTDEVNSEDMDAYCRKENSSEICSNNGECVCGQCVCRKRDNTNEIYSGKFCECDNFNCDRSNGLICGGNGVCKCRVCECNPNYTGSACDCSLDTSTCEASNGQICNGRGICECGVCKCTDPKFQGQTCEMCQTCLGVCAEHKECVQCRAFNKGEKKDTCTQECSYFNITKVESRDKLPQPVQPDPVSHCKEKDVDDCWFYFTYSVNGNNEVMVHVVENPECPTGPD
# Procedure Text: biochemical
Assay Endpoint: IC50

Lookup: # get_value(readout='IC50', item= C[C@@H]1NC(=O)[C@H](C)N(C)C(=O)[C@H](C)NC(=O)[C@H](CC(=O)O)N(C)C(=O)CNC(=O)[C@@H](CCCNC(=N)N)NC1=O [compound 17, c(rG*DA*AA)] )
Found: > 10 µM

---

# Procedure Text: in vitro
# Study Conditions: human, Caco-2, pH 7.4, Papp (BA), replicate 1
Assay Endpoint: Papp B→A at 90 min, 10 μM (×10⁻⁶ cm/s)
Your answer is read as ×10⁻⁶ cm/s, so omit the unit and give the number.

Lookup: Any idea what Papp B→A at 90 min, 10 μM was measured for C[C@H]1O[C@@H](O[C@H]2[C@@H](O)C[C@H](O[C@H]3[C@@H](O)C[C@H](O[C@H]4CC[C@@]5(C)[C@H](CC[C@@H]6[C@@H]5C[C@@H](O)[C@]5(C)[C@@H](C7=CC(=O)OC7)CC[C@]65O)C4)O[C@@H]3C)O[C@@H]2C)C[C@H](O)[C@@H]1O [Digoxin] ?
Found: 9.4
